B1: EEHEE_rd4_0003 (parent)
chain: KKVTINGVEIKFNNPEEAVKFALELAKRLNLRIEFHGDQIKIE

Variants of: B1
ASSAY EXPLANATION: folding stability dG (cDNA display proteolysis); higher = more stable
MEASUREMENT SETUP: PBS, room temperature
RECORDED METRIC: folding stability dG (kcal/mol)
One number for each entry, in kcal/mol.

Solved entries (count: 8):
A22Q    1.22
I33Y    1.74
L31N    0.824
K27G    2.39
R32I    2.36
F21R    1.76
L31C    2.84
L31R    1.34

# return folding stability dG for each item in the list
1. V8I
2. L31I
3. R28F
4. N30Y

A.
2.74
2.5
2.5
2.42
